B1: Ankyrin-2, residues 3571 to 3650; numbered along this chain, Q01484 (parent)
chain: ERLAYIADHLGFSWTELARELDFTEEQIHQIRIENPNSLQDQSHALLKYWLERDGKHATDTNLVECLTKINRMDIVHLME

Variants of: B1
ASSAY: abundance fitness (aPCA) (normalised: wild type 0, dead -1); higher = more abundant; growth selection in yeast, the domain comes from the species named
EXPERIMENTAL SETUP: Homo sapiens
Label true (1) when abundance fitness >= -0.06; otherwise false (0).

- VAR: "L46V"
  DISCRETE LABEL: "false (0)"
- VAR: "L10C"
  DISCRETE LABEL: "false (0)"
- VAR: "Q40A"
  DISCRETE LABEL: "false (0)"
- VAR: "L39M"
  DISCRETE LABEL: "true (1)"
- VAR: "K56V"
  DISCRETE LABEL: "true (1)"
- VAR: "T24Y"
  DISCRETE LABEL: "true (1)"
